System: Mus musculus
protocol: Anticonvulsant activity in CF1 albino mouse assessed as inhibition of maximal electroshock-induced seizures at 300 mg/kg, ip after 0.5 hrs
Format: functional, organism-based
Set-up: dose 300 mg/kg
Activity calls are given as the source filed them. The calls are words filed in the database; no cut-off is given here.
A correct response names exactly one class from active, inactive

INPUT: Assay result, entry CCCCC(CC)C(=O)Nc1ccc(S(N)(=O)=O)cc1 (stereo unspecified) — outcome?
OUTPUT: active

INPUT: Assay result, entry "CC(C)(C)CC(=O)NCc1ccc(S(N)(=O)=O)cc1" — outcome?
OUTPUT: inactive

INPUT: Assay result, entry CCCC(C(=O)Nc1ccc(S(N)(=O)=O)cc1)C(C)(C)C (stereo unspecified) — outcome?
OUTPUT: inactive

INPUT: Assay result, entry "CC(C)C(C(=O)Nc1ccc(S(N)(=O)=O)cc1)C(C)C" — outcome?
OUTPUT: inactive

INPUT: Assay result, entry "CC(C)(C)C(=O)NCc1ccc(S(N)(=O)=O)cc1" — outcome?
OUTPUT: inactive

INPUT: Assay result, entry "CCCC(CCC)C(=O)O" — outcome?
OUTPUT: active

INPUT: Assay result, entry "CCC(CC)C(=O)NCc1ccc(S(N)(=O)=O)cc1" — outcome?
OUTPUT: active

INPUT: Assay result, entry CCC(C)CC(=O)Nc1ccc(S(N)(=O)=O)cc1 (stereo unspecified) — outcome?
OUTPUT: inactive

INPUT: Assay result, entry CCC(C(=O)Nc1ccc(S(N)(=O)=O)cc1)C(C)(C)C (stereo unspecified) — outcome?
OUTPUT: inactive

INPUT: Assay result, entry CCCC(CC)C(=O)Nc1ccc(S(N)(=O)=O)cc1 (stereo unspecified) — outcome?
OUTPUT: inactive

INPUT: Assay result, entry CC(C)C(C(=O)Nc1ccc(S(N)(=O)=O)cc1)C(C)(C)C (stereo unspecified) — outcome?
OUTPUT: inactive

INPUT: Assay result, entry CCCC(C(=O)Nc1ccc(S(N)(=O)=O)cc1)C(C)C (stereo unspecified) — outcome?
OUTPUT: active

INPUT: Assay result, entry CCC(C)C(C(=O)Nc1ccc(S(N)(=O)=O)cc1)C(C)C (stereo unspecified) — outcome?
OUTPUT: inactive

INPUT: Assay result, entry CCC(C)C(=O)Nc1ccc(S(N)(=O)=O)cc1 (stereo unspecified) — outcome?
OUTPUT: active

INPUT: Assay result, entry CCCC(C(=O)Nc1ccc(S(N)(=O)=O)cc1)C(C)CC (stereo unspecified) — outcome?
OUTPUT: active

INPUT: Assay result, entry "CC(C)(C)C(=O)Nc1ccc(S(N)(=O)=O)cc1" — outcome?
OUTPUT: active

INPUT: Assay result, entry "NS(=O)(=O)c1ccc(NC(=O)Cc2ccccc2)cc1" — outcome?
OUTPUT: active

INPUT: Assay result, entry "CCC(CC)C(=O)NCCc1ccc(S(N)(=O)=O)cc1" — outcome?
OUTPUT: inactive

INPUT: Assay result, entry CCC(CC(C)C)C(=O)Nc1ccc(S(N)(=O)=O)cc1 (stereo unspecified) — outcome?
OUTPUT: inactive

INPUT: Assay result, entry CCCC(C)C(=O)Nc1ccc(S(N)(=O)=O)cc1 (stereo unspecified) — outcome?
OUTPUT: active

INPUT: Assay result, entry "CCC(CC)C(=O)Nc1ccc(S(N)(=O)=O)cc1" — outcome?
OUTPUT: active

###

Test system: Mus musculus
protocol: Anticonvulsant activity in CF1 albino mouse assessed as inhibition of subcutaneous pentylenetetrazole-induced seizures at 300 mg/kg, ip after 4 hrs
Assay type: functional, organism-based
Design: dose 300 mg/kg
Activity calls are given as the source filed them. The calls are words filed in the database; no cut-off is given here.
attribute measured: Activity

Use these answered entries as a reference point.
- compound: "CCC(CC)C(=O)NCCc1ccc(S(N)(=O)=O)cc1"
  target entity: "Mus musculus"
  Activity: "inactive"
- compound: "CCC(C)C(=O)Nc1ccc(S(N)(=O)=O)cc1 (stereo unspecified)"
  target entity: "Mus musculus"
  Activity: "inactive"
- compound: "CCC(CC)C(=O)NCc1ccc(S(N)(=O)=O)cc1"
  target entity: "Mus musculus"
  Activity: "inactive"
- compound: "CC(C)(C)CC(=O)NCc1ccc(S(N)(=O)=O)cc1"
  target entity: "Mus musculus"
  Activity: "inactive"
- compound: "CCC(C)CC(=O)Nc1ccc(S(N)(=O)=O)cc1 (stereo unspecified)"
  target entity: "Mus musculus"
  Activity: "inactive"

// next entry
Noted for "NS(=O)(=O)c1ccc(NC(=O)Cc2ccccc2)cc1" : its Activity reads inactive

###

System: Mus musculus
protocol: Anticonvulsant activity in CF1 albino mouse assessed as inhibition of maximal electroshock-induced seizures at 100 mg/kg, ip after 0.5 hrs
Type: functional, organism-based
Set-up: dose 100 mg/kg
Activity calls are given as the source filed them. The calls are words filed in the database; no cut-off is given here.
A correct response names exactly one class from active, inactive

INPUT: Assay result, entry CCC(CC(C)C)C(=O)Nc1ccc(S(N)(=O)=O)cc1 (stereo unspecified) — outcome?
OUTPUT: inactive

INPUT: Assay result, entry CCCC(C)C(=O)Nc1ccc(S(N)(=O)=O)cc1 (stereo unspecified) — outcome?
OUTPUT: inactive

INPUT: Assay result, entry CCC(C)C(C(=O)Nc1ccc(S(N)(=O)=O)cc1)C(C)C (stereo unspecified) — outcome?
OUTPUT: inactive

INPUT: Assay result, entry "CCC(CC)C(=O)NCc1ccc(S(N)(=O)=O)cc1" — outcome?
OUTPUT: active

INPUT: Assay result, entry CCC(C(=O)Nc1ccc(S(N)(=O)=O)cc1)C(C)(C)C (stereo unspecified) — outcome?
OUTPUT: inactive

INPUT: Assay result, entry CCC(C)C(=O)Nc1ccc(S(N)(=O)=O)cc1 (stereo unspecified) — outcome?
OUTPUT: active

###

Test system: Mus musculus
protocol: Teratogenic effect in SWV mouse assessed as fetuses with neural tube deffects at 486 mg/kg, ip administered on morning of day 8 of gestation
Type: toxicity, organism-based
Set-up: dose 486 mg/kg, route intraperitoneal
stated conditions: in vivo
Assignment: determine reported Activity for the given molecules.
Reply with just the number (in %).

Noted for CCCC(C)C(=O)Nc1ccc(S(N)(=O)=O)cc1 (centres undefined) : its Activity reads 17

Noted for "CCC(CC)C(=O)Nc1ccc(S(N)(=O)=O)cc1" : its Activity reads 25.9

Noted for "CC(C)(C)CC(=O)Nc1ccc(S(N)(=O)=O)cc1" : its Activity reads 15

Noted for CCC(C)CC(=O)Nc1ccc(S(N)(=O)=O)cc1 (centres undefined) : its Activity reads 9.4

###

System: Rattus norvegicus
protocol: Anticonvulsant activity in Sprague-Dawley rat assessed as inhibition of maximal electroshock-induced seizures at 30 mg/kg, po after 2 hrs
Activity calls are given as the source filed them. The rule behind the calls is not given here.
A correct response names exactly one class from T = active, F = inactive

INPUT: Assay result, entry "CCC(CC)C(=O)NCc1ccc(S(N)(=O)=O)cc1" — outcome?
OUTPUT: F

INPUT: Assay result, entry CCCC(C(=O)Nc1ccc(S(N)(=O)=O)cc1)C(C)(C)C (stereo unspecified) — outcome?
OUTPUT: F

INPUT: Assay result, entry CCCC(C)C(=O)Nc1ccc(S(N)(=O)=O)cc1 (stereo unspecified) — outcome?
OUTPUT: T

INPUT: Assay result, entry CCC(C)C(C(=O)Nc1ccc(S(N)(=O)=O)cc1)C(C)C (stereo unspecified) — outcome?
OUTPUT: F

INPUT: Assay result, entry CCC(C)C(=O)Nc1ccc(S(N)(=O)=O)cc1 (stereo unspecified) — outcome?
OUTPUT: T

INPUT: Assay result, entry CCC(C)C(CC)C(=O)Nc1ccc(S(N)(=O)=O)cc1 (stereo unspecified) — outcome?
OUTPUT: T

###

Assignment: determine reported Activity for the given compounds.
Tested on: Mus musculus
protocol: Teratogenic effect in SWV mouse assessed as resorptions at 294 mg/kg, ip administered on morning of day 8 of gestation
Assay type: toxicity, organism-based
Set-up: dose 294 mg/kg, route intraperitoneal
stated conditions: in vivo
Reply with just the number (in %).

GET /values?item= "CCC(CC)C(=O)Nc1ccc(S(N)(=O)=O)cc1" &system= Mus musculus returns Activity: 15.8

GET /values?item= CCCC(C)C(=O)Nc1ccc(S(N)(=O)=O)cc1 (centres undefined) &system= Mus musculus returns Activity: 34.8

GET /values?item= "CC(C)(C)CC(=O)Nc1ccc(S(N)(=O)=O)cc1" &system= Mus musculus returns Activity: 8.4

GET /values?item= CCC(C)CC(=O)Nc1ccc(S(N)(=O)=O)cc1 (centres undefined) &system= Mus musculus returns Activity: 32.5

###

System: Mus musculus
protocol: Anticonvulsant activity in CF1 albino mouse assessed as inhibition of maximal electroshock-induced seizures at 100 mg/kg, ip after 0.5 hrs
Assay type: functional, organism-based
Set-up: dose 100 mg/kg
Calls of active or inactive are those of the source. No cut-off for these calls is given here.
A correct response names exactly one class from active, inactive

INPUT: Assay result, entry CCCC(C(=O)Nc1ccc(S(N)(=O)=O)cc1)C(C)(C)C (configuration not stated) — outcome?
OUTPUT: inactive

INPUT: Assay result, entry "CC(C)C(C(=O)Nc1ccc(S(N)(=O)=O)cc1)C(C)C" — outcome?
OUTPUT: inactive

INPUT: Assay result, entry "CCC(CC)C(=O)NCCc1ccc(S(N)(=O)=O)cc1" — outcome?
OUTPUT: inactive

INPUT: Assay result, entry CCCC(CCC)C(=O)O [VALPROIC ACID] — outcome?
OUTPUT: inactive

INPUT: Assay result, entry CCCC(CC)C(=O)Nc1ccc(S(N)(=O)=O)cc1 (configuration not stated) — outcome?
OUTPUT: inactive

INPUT: Assay result, entry "CC(C)(C)CC(=O)NCc1ccc(S(N)(=O)=O)cc1" — outcome?
OUTPUT: inactive

INPUT: Assay result, entry "CC(C)(C)C(=O)NCc1ccc(S(N)(=O)=O)cc1" — outcome?
OUTPUT: inactive

INPUT: Assay result, entry CCCCC(CC)C(=O)Nc1ccc(S(N)(=O)=O)cc1 (configuration not stated) — outcome?
OUTPUT: active

INPUT: Assay result, entry CCCC(C(=O)Nc1ccc(S(N)(=O)=O)cc1)C(C)C (configuration not stated) — outcome?
OUTPUT: inactive

INPUT: Assay result, entry "CCC(CC)C(=O)Nc1ccc(S(N)(=O)=O)cc1" — outcome?
OUTPUT: active

INPUT: Assay result, entry "NS(=O)(=O)c1ccc(NC(=O)Cc2ccccc2)cc1" — outcome?
OUTPUT: active

INPUT: Assay result, entry CCC(C)CC(=O)Nc1ccc(S(N)(=O)=O)cc1 (configuration not stated) — outcome?
OUTPUT: inactive
